# assayedTarget: T1, recombinant human 4R0N tau (human, UniProt P10636 2-758)
# T1 construct: also called recombinant 4R0N human tau; P10636-6
# T1 sequence (P10636 other isoform, or with tags, fused parts or gaps limits assumed): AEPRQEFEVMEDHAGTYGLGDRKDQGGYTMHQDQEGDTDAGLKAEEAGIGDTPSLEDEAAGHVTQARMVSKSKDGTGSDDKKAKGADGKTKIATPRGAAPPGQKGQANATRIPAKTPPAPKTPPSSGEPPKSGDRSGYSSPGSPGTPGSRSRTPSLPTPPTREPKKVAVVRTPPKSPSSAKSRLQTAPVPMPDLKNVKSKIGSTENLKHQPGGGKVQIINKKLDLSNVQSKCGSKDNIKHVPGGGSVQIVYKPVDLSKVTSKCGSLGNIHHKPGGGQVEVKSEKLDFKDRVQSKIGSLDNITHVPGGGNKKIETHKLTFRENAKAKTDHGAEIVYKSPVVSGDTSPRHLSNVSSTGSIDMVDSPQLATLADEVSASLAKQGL
# protocolDetails: SPR Biacore T200; antibody captured by anti-human Fc; tau as analyte; global 1:1 fit
Give koff for every item shown.
Just the number please, in s⁻¹, no unit attached.

## Task What measured koff goes with hu9F5VHv9/hu9F5VLv8_DIM8 (antibody, V domains shown) VH: EVQLVQSGAEVKKPGATVKISCKASGFNIKDDYMNWVQQRPGKGLEWIGWIDPENGDTEYASKFQGRATMTADTSTNTAYMELSSLRSEDTAVYYCTTSNGWGQGTLVTVSS VL: DIQMTQSPFSLPVTPGESASISCRSSKSLGHSNGITYLYWYQQKPGQSPQLLIYQKSNRASGVPNRFSSSGSGTDFTLKISRVEAEDVGVYYCAQNIELPLTFGQGTKLEIK ?
## Result 0.000576

## Task What measured koff goes with hu9F5VHv9/hu9F5VLv8_DIM1 (antibody, V domains shown) VH: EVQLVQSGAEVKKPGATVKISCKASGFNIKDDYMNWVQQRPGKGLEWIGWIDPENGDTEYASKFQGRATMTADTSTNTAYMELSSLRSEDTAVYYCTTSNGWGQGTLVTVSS VL: DIQMTQSPFSLPVTPGESASISCRSSKSLSHSNGITYLYWYQQKPGQSPQLLIYQGSNGASGVPNRFSSSGSGTDFTLKISRVEAEDVGVYYCAQNIELPLTFGQGTKLEIK ?
## Result 0.00559
